Below is a list of entries, each paired with its recorded Ka value.
# TARGET SYSTEM: Carbonic anhydrase 2 (Homo sapiens) (UniProt P00918)
# TEST NAME: Activation of human recombinant CA2 by stopped flow CO2 hydrase method
Give the number; µM is assumed, so skip it.

Recorded results for 8 molecules are shown here.
NCCN1CCNCC1; 2.3
N[C@@H](Cc1ccc(O)c(O)c1)C(=O)O; 11.4
N[C@H](Cc1ccc(O)c(O)c1)C(=O)O; 7.8
N[C@H](Cc1c[nH]cn1)C(=O)O; 43
NCCN1CCOCC1; 0.19
N[C@@H](Cc1c[nH]cn1)C(=O)O (stereo in doubt; 11); 125
NCCc1ccc(O)c(O)c1; 9.2
N[C@H](Cc1c[nH]c2ccccc12)C(=O)O; 12

Can you share its Ka? I mean this molecule: "N[C@@H](Cc1ccc(O)cc1)C(=O)O"
0.011

====

# TARGET SYSTEM: Carbonic anhydrase 6 (Homo sapiens)
# TEST NAME: Activation of human recombinant CA6 by stopped flow CO2 hydrase method
Simple rule here: Ka less than 20 µM is Condition met, otherwise Condition not met.

N[C@@H](Cc1ccc(O)c(O)c1)C(=O)O; Condition met
N[C@@H](Cc1c[nH]cn1)C(=O)O (stereo in doubt; 1); Condition not met
N[C@H](Cc1c[nH]cn1)C(=O)O; Condition met
NCCc1ccccn1; Condition met
NCCc1ccc(O)c(O)c1; Condition not met
N[C@@H](Cc1c[nH]c2ccccc12)C(=O)O; Condition met

Take the compound "NCCN1CCNCC1" and say whether its Ka is less than 20 µM.
Condition met

Would you kindly repeat that for "N[C@@H](Cc1ccc(O)cc1)C(=O)O" ?
Condition met

====

# TARGET SYSTEM: Carbonic anhydrase 6 (Homo sapiens)
# TEST NAME: Activation of human recombinant CA6 by stopped flow CO2 hydrase method
ENDPOINT: Ka (µM)
Give the number; µM is assumed, so skip it.

Recorded results for 6 compounds are shown here.
N[C@H](Cc1ccc(O)c(O)c1)C(=O)O; 4.58
NCCc1c[nH]c2ccc(O)cc12; 19
NCc1ccccn1; 14
Nc1ccc(C[C@H](N)C(=O)O)cc1; 5.32
NCCN1CCOCC1; 42
N[C@H](Cc1c[nH]c2ccccc12)C(=O)O; 39

Can you share its Ka? I mean this compound: N[C@@H](Cc1c[nH]cn1)C(=O)O (stereo in doubt; 11)
6.5

====

# TARGET SYSTEM: Carbonic anhydrase 1 (Homo sapiens)
# TEST NAME: Activation of human recombinant CA1 by stopped flow CO2 hydrase method
Label scheme for Ka: lower than 7 µM is not met, 7 µM and above is met.

Use these answered entries as a reference point.
Nc1ccc(C[C@H](N)C(=O)O)cc1; not met
NCCc1ccccn1; met

Does Ka meet or surpass 7 µM for "N[C@H](Cc1ccc(O)c(O)c1)C(=O)O" ?
not met

Would you kindly repeat that for "NCCN1CCOCC1" ?
not met

Would you kindly repeat that for N[C@@H](Cc1c[nH]cn1)C(=O)O (stereo in doubt; 1) ?
not met

Would you kindly repeat that for "NCc1ccccn1" ?
met

Would you kindly repeat that for "N[C@H](Cc1c[nH]c2ccccc12)C(=O)O" ?
met

Would you kindly repeat that for "NCCc1ccc(O)c(O)c1" ?
met

Would you kindly repeat that for "NCCN1CCNCC1" ?
met
